conditions: in 2-methoxyethanol, 283.15 K
ASSAY_ENDPOINT: solubility (mole fraction)

Ask | I have this molecule here, CC(C(=O)O)c1ccc2c(c1)CC(=O)c1ccccc1S2 (stereo unspecified) , and I need its recorded solubility (mole fraction).
Reply | 0.036

----------
conditions: in 1,4-dioxane, 313.15 K
ASSAY_ENDPOINT: solubility (mole fraction)
No unit in the answer, only the number.

Ask | Tell me the measured solubility (mole fraction) of CC(C(=O)O)c1ccc2c(c1)CC(=O)c1ccccc1S2 (stereo unspecified) , please.
Reply | 0.157

----------
conditions: in ethyl acetate, 298.15 K
ASSAY_ENDPOINT: solubility (mole fraction)
// no unit, no text: just the number

Ask | For the compound shown here, CC(C(=O)O)c1ccc2c(c1)CC(=O)c1ccccc1S2 (stereo unspecified) , give the reported solubility (mole fraction).
Reply | 0.0154

----------
settings: in ethyl acetate, 303.15 K
ASSAY_ENDPOINT: solubility (mole fraction)
Write the number on its own, no unit after it.

Ask | For the compound CC(C(=O)O)c1ccc2c(c1)CC(=O)c1ccccc1S2 (stereo unspecified) , what solubility (mole fraction) is on record?
Reply | 0.0176

----------
details: in 2-ethoxyethanol, 308.15 K
ASSAY_ENDPOINT: solubility (mole fraction)
No unit in the answer, only the number.

Ask | Quick one: solubility (mole fraction) of CC(C(=O)O)c1ccc2c(c1)CC(=O)c1ccccc1S2 (stereo unspecified) ?
Reply | 0.0911

----------
details: in 2-ethoxyethanol, 278.15 K
ASSAY_ENDPOINT: solubility (mole fraction)

Ask | Need solubility (mole fraction) of CC(C(=O)O)c1ccc2c(c1)CC(=O)c1ccccc1S2 (stereo unspecified) , thanks.
Reply | 0.0373

----------
details: in ethanol, 293.15 K
ASSAY_ENDPOINT: solubility (mole fraction)
Please give the numeric answer without any surrounding text.

Ask | solubility (mole fraction) lookup needed for CC(C(=O)O)c1ccc2c(c1)CC(=O)c1ccccc1S2 (stereo unspecified) , thanks.
Reply | 0.0071

----------
settings: in 2-methoxyethanol, 318.15 K
ASSAY_ENDPOINT: solubility (mole fraction)
// no unit, no text: just the number

Ask | I'd like to know its solubility (mole fraction). The compound in question is CC(C(=O)O)c1ccc2c(c1)CC(=O)c1ccccc1S2 (stereo unspecified)
Reply | 0.119

----------
conditions: in 2-methoxyethanol, 308.15 K
ASSAY_ENDPOINT: solubility (mole fraction)
Respond with the number and no other words.

Ask | For CC(C(=O)O)c1ccc2c(c1)CC(=O)c1ccccc1S2 (stereo unspecified) , what is its reported solubility (mole fraction)?
Reply | 0.0878

----------
settings: in ethyl acetate, 308.15 K
ASSAY_ENDPOINT: solubility (mole fraction)
Give a plain numeric answer without units written out.

Ask | Query: solubility (mole fraction); subject: CC(C(=O)O)c1ccc2c(c1)CC(=O)c1ccccc1S2 (stereo unspecified)
Reply | 0.0216

----------
conditions: in ethanol, 298.15 K
ASSAY_ENDPOINT: solubility (mole fraction)

Ask | Need solubility (mole fraction), item CC(C(=O)O)c1ccc2c(c1)CC(=O)c1ccccc1S2 (stereo unspecified)
Reply | 0.00956

----------
settings: in ethanol, 313.15 K
ASSAY_ENDPOINT: solubility (mole fraction)

Ask | Which measured solubility (mole fraction) value corresponds to CC(C(=O)O)c1ccc2c(c1)CC(=O)c1ccccc1S2 (stereo unspecified) ?
Reply | 0.0222

----------
conditions: in ethyl acetate, 323.15 K
ASSAY_ENDPOINT: solubility (mole fraction)
Give only the figure.

Ask | For the compound CC(C(=O)O)c1ccc2c(c1)CC(=O)c1ccccc1S2 (stereo unspecified) , what solubility (mole fraction) is on record?
Reply | 0.0362

----------
conditions: in ethyl acetate, 318.15 K
ASSAY_ENDPOINT: solubility (mole fraction)
Give a plain numeric answer without units written out.

Ask | Entry CC(C(=O)O)c1ccc2c(c1)CC(=O)c1ccccc1S2 (stereo unspecified) : reported solubility (mole fraction) = ?
Reply | 0.0304

----------
settings: in ethyl acetate, 283.15 K
ASSAY_ENDPOINT: solubility (mole fraction)
Respond with the number and no other words.

Ask | Tell me the measured solubility (mole fraction) of CC(C(=O)O)c1ccc2c(c1)CC(=O)c1ccccc1S2 (stereo unspecified) , please.
Reply | 0.00951

----------
conditions: in ethanol, 303.15 K
ASSAY_ENDPOINT: solubility (mole fraction)
The response must contain the number and no unit.

Ask | Dear colleague, I am looking for the recorded solubility (mole fraction) of the following compound: CC(C(=O)O)c1ccc2c(c1)CC(=O)c1ccccc1S2 (stereo unspecified)
Reply | 0.012

----------
conditions: in 2-ethoxyethanol, 283.15 K
ASSAY_ENDPOINT: solubility (mole fraction)
Returns: the value as a bare number; no unit string appended.

Ask | # query: solubility (mole fraction) of entry CC(C(=O)O)c1ccc2c(c1)CC(=O)c1ccccc1S2 (stereo unspecified)
Reply | 0.0458

----------
conditions: in ethyl acetate, 293.15 K
ASSAY_ENDPOINT: solubility (mole fraction)

Ask | Can you share its solubility (mole fraction)? I mean this molecule: CC(C(=O)O)c1ccc2c(c1)CC(=O)c1ccccc1S2 (stereo unspecified)
Reply | 0.0131

----------
conditions: in ethyl acetate, 278.15 K
ASSAY_ENDPOINT: solubility (mole fraction)
Keep it simple and answer with nothing but the number.

Ask | Given CC(C(=O)O)c1ccc2c(c1)CC(=O)c1ccccc1S2 (stereo unspecified) , state its recorded solubility (mole fraction).
Reply | 0.00812

----------
conditions: in ethyl acetate, 313.15 K
ASSAY_ENDPOINT: solubility (mole fraction)
Please reply with the value in numeric form only.

Ask | Which value of solubility (mole fraction) has been reported for CC(C(=O)O)c1ccc2c(c1)CC(=O)c1ccccc1S2 (stereo unspecified) in the records?
Reply | 0.0256

----------
conditions: in 1,4-dioxane, 303.15 K
ASSAY_ENDPOINT: solubility (mole fraction)
Number, no unit, nothing else.

Ask | Entry under review: CC(C(=O)O)c1ccc2c(c1)CC(=O)c1ccccc1S2 (stereo unspecified) . Reported solubility (mole fraction)?
Reply | 0.127

----------
settings: in 2-methoxyethanol, 298.15 K
ASSAY_ENDPOINT: solubility (mole fraction)
API doc: respond with a numeric literal and nothing else, no unit.

Ask | Data request, read-out solubility (mole fraction), for CC(C(=O)O)c1ccc2c(c1)CC(=O)c1ccccc1S2 (stereo unspecified)
Reply | 0.0619

----------
settings: in ethanol, 308.15 K
ASSAY_ENDPOINT: solubility (mole fraction)

Ask | Using the record for CC(C(=O)O)c1ccc2c(c1)CC(=O)c1ccccc1S2 (stereo unspecified) , report its solubility (mole fraction).
Reply | 0.0166

----------
details: in 1,4-dioxane, 308.15 K
ASSAY_ENDPOINT: solubility (mole fraction)
# print the numeric value only

Ask | Consider the compound shown here: CC(C(=O)O)c1ccc2c(c1)CC(=O)c1ccccc1S2 (stereo unspecified) What is its recorded solubility (mole fraction)?
Reply | 0.142

----------
details: in ethanol, 288.15 K
ASSAY_ENDPOINT: solubility (mole fraction)
Give the value as a plain number.

Ask | Form field: reported solubility (mole fraction) of CC(C(=O)O)c1ccc2c(c1)CC(=O)c1ccccc1S2 (stereo unspecified)
Reply | 0.00522

----------
conditions: in 1,4-dioxane, 288.15 K
ASSAY_ENDPOINT: solubility (mole fraction)
No unit in the answer, only the number.

Ask | What value of measured solubility (mole fraction) is listed for CC(C(=O)O)c1ccc2c(c1)CC(=O)c1ccccc1S2 (stereo unspecified) ?
Reply | 0.0923

----------
conditions: in 2-ethoxyethanol, 293.15 K
ASSAY_ENDPOINT: solubility (mole fraction)
Just the number, please, no unit after it.

Ask | Please report the recorded solubility (mole fraction) for CC(C(=O)O)c1ccc2c(c1)CC(=O)c1ccccc1S2 (stereo unspecified) .
Reply | 0.0596

----------
details: in 2-methoxyethanol, 313.15 K
ASSAY_ENDPOINT: solubility (mole fraction)
Response field accepts a number only; no unit should be typed.

Ask | Reported solubility (mole fraction) for CC(C(=O)O)c1ccc2c(c1)CC(=O)c1ccccc1S2 (stereo unspecified) : what is it?
Reply | 0.102

----------
details: in 2-methoxyethanol, 288.15 K
ASSAY_ENDPOINT: solubility (mole fraction)
# output: bare number, no unit

Ask | # query: solubility (mole fraction) of entry CC(C(=O)O)c1ccc2c(c1)CC(=O)c1ccccc1S2 (stereo unspecified)
Reply | 0.0437

----------
details: in ethanol, 318.15 K
ASSAY_ENDPOINT: solubility (mole fraction)
Provide a numeric answer; units are not to be included.

Ask | Tell me the measured solubility (mole fraction) of CC(C(=O)O)c1ccc2c(c1)CC(=O)c1ccccc1S2 (stereo unspecified) , please.
Reply | 0.03

----------
conditions: in 2-ethoxyethanol, 288.15 K
ASSAY_ENDPOINT: solubility (mole fraction)

Ask | Find the recorded solubility (mole fraction) belonging to CC(C(=O)O)c1ccc2c(c1)CC(=O)c1ccccc1S2 (stereo unspecified) and report it.
Reply | 0.0518
